- Test system: MS2 coat protein
- assay.name: apparent KD of MS2 coat protein; designed switch direction (-1 OFF switch, 1 ON switch): -1; higher = weaker reporter binding
- study.conditions: input ligand: none
experimental.readout: apparent KD of MS2 coat protein (nM)
Numbers only, in nM.

See these solved cases before continuing.
sequence.record: ACUCGACAUGAGGAUCACCCAUGUGAGGAUAUGGCCUGUAUGGCGUGAGCUGGCUCUGUCAGAAGGCGCGUGGG [salish99_ex1_r4_046] (Eterna round: R97, puzzle: Exclusion 1)
measure.unit: nM
apparent KD of MS2 coat protein: 59

sequence.record: GCAAGCUUUUGCUCGUCUUACAUGAGGAUCACCCAUGUCGGGUUCGGUCGUCGCGGCUGGGCUUGCCGGGCGCCGGG [-28.7, -55.8 kcal, A 10%] (Eterna round: R97, puzzle: Sensor, turn-off variant 1)
measure.unit: nM
apparent KD of MS2 coat protein: 244

sequence.record: CCAAGCUUAUUCAUUAACAACAUGAGGAUCACCCAUGUAUAGGCAAUUAUGUUUGGGCUCUUUAGUGCUCGUCUUAU [Sensor-V1 #23] (Eterna round: R97, puzzle: Sensor, turn-off variant 1)
measure.unit: nM
apparent KD of MS2 coat protein: 15.5

sequence.record: UUUUAAAAGCUGAGAUCCUACAUGAGGAUCACCCAUGUGGUCCGGAAAAUUUUGUCACCGGAUUUUGCUCGUCUUGU [salish99_S_TOV1_R5_103] (Eterna round: R97, puzzle: Sensor, turn-off variant 1)
measure.unit: nM
apparent KD of MS2 coat protein: 114

sequence.record: ACAUGAGGAUCACCCAUGUCCGGCUGGUCUGUUUCGGUUGUCGAGGAUAUAGUUCGGUGUUCGCGCUAGAAGGUGGGAGCUGGG [Aenatbe mod 56] (Eterna round: R96, puzzle: Exclusion NG 3)
measure.unit: nM
apparent KD of MS2 coat protein: 147

Consider the following items and state reported apparent KD of MS2 coat protein for each.
1. AUCCUACAUGAGGAUCACCCAUGUCAGGAUAUCCAAGAAAUCUGGCCGUAUCGGCCAGGGAGAAGGGACAUGGC [jl-ex1-4.66 ViennaUCT mod] (Eterna round: R97, puzzle: Exclusion 1)
2. UAGUUAAUCACAGGAUAUCGCCUCUUAUUACAUGAGGAUCACCCAUGUUUAGUUAGUUACAUGUUCGAGAAGGGUGUUGUAGUU [JR_ExcNG2_Sub042] (Eterna round: R96, puzzle: Exclusion NG 2)
3. GUGUUGCGAGGAUAUAUAAGGAAAUGUUCUUAGGAUAUGGAACAUGAGGAUCACCCAUGUAGAAGGUGCAUAUC [JR_Ex2_Sub048] (Eterna round: R97, puzzle: Exclusion 2)
4. ACAAGAGCGGAAGGAUAUUGUACAUGAGGAUCACCCAUGUAAUAAAUGAGGAUCACGGAUGUAGUCAAGAAGGUCCGGAUAAGA [Ostracism 1 - Jieux - Exclusion NG 2] (Eterna round: R96, puzzle: Exclusion NG 2)

1. 28.4
2. 579
3. 38.7
4. 50.6

====

- Tested on: MS2 coat protein
- assay.name: apparent KD of MS2 coat protein; designed switch direction (-1 OFF switch, 1 ON switch): -1; higher = weaker reporter binding
- study.conditions: input ligand: FMN 200 uM
Exercise: for every item that follows, state its recorded apparent KD of MS2 coat protein.
One number for each entry, in nM.

sequence.record: AGCUAGAUAGGAUAUGCCCGGGAUAACAUGAGGAUCACCCAUGUGGCCGAAUCAAAUCCAGCAGAAGGGUUUGGGA [Mod of ViennaUCT 12 - Jieux - Exclusion 5] (Eterna round: R97, puzzle: Exclusion 5)
experimental.system: MS2 coat protein
measure.unit: nM
value.observed: 30.8

Need apparent KD of MS2 coat protein, item CAAACGGCUUUAGGAUAUGACUUUUCGUACAUGAGGAUCACCCAUGUCAGGACUGGUGGUGCGAGUCAGAAGGAGAGUCAAGAA [Eternabot solution 30] (Eterna round: R96, puzzle: Exclusion NG 2)
94.3
